Where do the numbers come from? From the Kinase Knowledgebase extract (Sharma et al. 2016).

Test system EGFR (UniProt P00533), pIC50 listed for each of the molecules.
pIC50: −log10 of the molar value.
Readout Type: pIC50

• COc1cc2c(Nc3ccc(Cl)c(Cl)c3)ncnc2cc1OC[C@H]1CN2CCC[C@H]2CO1 = > 7.30
• COC(=O)CCCCN1CCOC(COc2cc3ncnc(Nc4ccc(Cl)c(Cl)c4)c3cc2OC)C1 (centres undefined) = > 7.30
• COc1cc2c(Nc3ccc(Cl)c(Cl)c3)ncnc2cc1OCCN1CCOCC1 = > 7.30
• COc1cc2c(Nc3ccc(Cl)c(Cl)c3)ncnc2cc1OCC1CN(Cc2ccccn2)CCO1 (centres undefined) = > 7.30
• COc1cc2c(Nc3ccc(F)c(F)c3F)ncnc2cc1O[C@@H]1CO[C@@H]2[C@H]1OC[C@H]2F = > 7.30
• COc1cc2c(Nc3ccc(Cl)c(Cl)c3)ncnc2cc1OCc1nc(CN2CCN(C)CC2)cs1 = > 7.30
• COc1cc2c(Nc3ccc(Cl)c(Cl)c3)ncnc2cc1OCCN1CCCCC1 = > 7.30
• COc1cc2c(Nc3cc(Cl)c(Br)cc3F)ncnc2cc1OC[C@H]1CN2CCOC[C@H]2CO1 = > 7.30
• COc1cc2c(Nc3ccc(F)c(Cl)c3F)ncnc2cc1OC[C@H]1CN2CCOC[C@H]2CO1 = > 7.30
• CCN1CCN(c2noc(COc3cc4ncnc(Nc5ccc(Cl)c(Cl)c5)c4cc3OC)n2)CC1 = > 7.30
• CCN1CCC[C@H]1c1nc(COc2cc3ncnc(Nc4ccc(Cl)c(Cl)c4)c3cc2OC)cs1 = > 7.30
• COc1cc2c(Nc3ccc(Cl)c(Cl)c3)ncnc2cc1OCC1CN(C(C)=O)CCO1 (centres undefined) = > 7.30
• COc1cc2c(Nc3ccc(Cl)c(Cl)c3)ncnc2cc1OCC1COCCN1C (centres undefined) = > 7.30
• COc1cc2c(Nc3cc(Cl)c(Cl)cc3F)ncnc2cc1OC[C@@H]1CN2CCC[C@H]2CO1 = > 7.30
• COc1cc2c(Nc3ccc(F)cc3F)ncnc2cc1O[C@@H]1CO[C@@H]2[C@H]1OC[C@H]2F = > 7.30
• COc1cc2c(Nc3ccc(Cl)c(Cl)c3)ncnc2cc1OCc1csc(N2CCN(C)CC2)n1 = > 7.30
• COc1cc2c(Nc3ccc(Br)c(Cl)c3Cl)ncnc2cc1O[C@H]1CO[C@H]2[C@@H]1OC[C@@H]2OC = > 7.30
• CN1CCOC(COc2cc3ncnc(Nc4ccc(Cl)c(Cl)c4)c3cc2O)C1 (centres undefined) = > 7.30
• COc1cc2c(Nc3ccc(Cl)c(Cl)c3)ncnc2cc1OCC1CN(C(=O)c2cc(F)ccc2F)CCO1 (centres undefined) = > 7.30
